# Tested on: GM3 expression on the cell surface, B16 mouse melanoma cells
# test-method-notes: cell based phenotypic assay, cell surface GM3 by antibody mediated immunofluorescence, B16 (GM3 B16 IC50)
# condition-description: Mus musculus, B16 mouse melanoma cells; 50% inhibition of GM3 expression on the cell surface; read-out: GM3 B16 IC50
# label = Criterion met if IC50 < 100 nM else Criterion not met

Problem: Threshold test, IC50 < 100 nM: "CC(C)(NC(=O)N1CCN2CCC1CC2)c1ccc(-c2ccc(CN3CCOCC3)cc2)cc1"
Result: Criterion not met

Problem: Threshold test, IC50 < 100 nM: "COCc1ccc(-c2ccnc(N3CCC(F)(C(=O)N[C@]4(C)CN5CCC4CC5)CC3)n2)cc1"
Result: Criterion met

Problem: Threshold test, IC50 < 100 nM: CC1(NC(=O)C2CN(c3nccc(-c4ccc(F)cc4)n3)C2)CCN2CCC1CC2 (centres unmarked)
Result: Criterion not met

Field: next molecule
Problem: Threshold test, IC50 < 100 nM: "CC1(COc2ccc(-c3ccc(C(C)(C)NC(=O)N4CCN5CCC4CC5)cc3)cc2)COC1"
Result: Criterion not met
